- measurement protocol: NCI Yeast Anticancer Drug Screen. Data for the rad50 strain (AID 155);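 further: 0% = growth of vehicle-only cultures of the same strain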
- condition summary: S. cerevisiae rad50 strain growth inhibition; at 5.0 µM (retest, dose inferred, filed as 0.5)
This is part of a sample that, as a whole, favours compounds with a hit. Of some 79,000 tested, about 15% had one in any assay. Calls of active or inactive are those of the source. No stated cut-off is given here; in the data, active means growth inhibition above about 70%; inactive means the rest.
Assign a class; possible classes are 1 (active), -1 (inactive)

These solved cases illustrate the format of a correct answer.
>  <compound>
CC(C)CNc1cc(Cl)nc(N)n1

>  <qualitative label>
-1

$$$$
>  <compound>
OC(CNc1ccnc2cc(Cl)ccc12)CNc1ccnc2cc(Cl)ccc12

>  <qualitative label>
-1

$$$$
>  <compound>
NC1CCCCC1N.O=S(=O)([O-])CCCN1CCN(CCO)CC1.O=S(=O)([O-])CCCN1CCN(CCO)CC1.[Pt+4]

>  <qualitative label>
-1

$$$$
>  <compound>
CC1(C)CC([P+](c2ccccc2)(c2ccccc2)c2ccccc2)=NN1

>  <qualitative label>
-1

$$$$
>  <compound>
CCCCC(CCc1ccccc1)(C(=O)O)c1ccccc1 (stereo not drawn)

>  <qualitative label>
1

$$$$

Task item: Could you check what this test reported for NS(=O)(=O)c1ccc(NC(=S)/N=C\C(C(=O)c2ccccc2)=C(\O)c2ccccc2)cc1 ?
Reply: -1

Task item: Hi team, can someone confirm the assay call for CCC1CCC(CC)C1=O (stereo not drawn) ?
Reply: -1

Task item: Check the results log: what was the call for O=C(N=c1sc2ccccc2s1)N=c1sc2ccccc2s1 ?
Reply: -1

Task item: Identify the outcome logged in this assay for the compound shown: CSc1ccc2c(c1)S[S@@](=O)N2
Reply: -1

Task item: # outcome recorded in this test, key = O=C1CCCc2cc3c(nc21)C(=O)CCC3
Reply: -1

Task item: Hi, sorry to bother you, what did the test record for CC(=O)c1ccc(OCc2ccccc2)cc1 ?
Reply: -1

Task item: Returns: the outcome recorded for CCOC(=O)c1c(-c2ccccc2)csc1NC(=O)CBr in this assay.
Reply: -1

Task item: # outcome recorded in this test, key = CCCCCCCCOc1ccc(/C=C/C(C)=N/NC(N)=NC)cc1OC
Reply: 1

Task item: Recorded test outcome, item O=[N+]([O-])c1ccc(-[n+]2ccc3ccccc3c2)c([N+](=O)[O-])c1
Reply: -1

====

- measurement protocol: NCI Yeast Anticancer Drug Screen. Data for the mec2-1 strain (AID 157)
- condition summary: S. cerevisiae mec2-1 strain, at 50.0 µM, active compounds read high
- Description: Growth inhibition of yeast strains with defined genetic alterations is measured as a screen for potential anti-cancer activity. Selected strains with alterations in DNA damage repair or cell cycle control were exposed to compounds and growth inhibition was measured relative to vehicle treated controls. The strain used in this assay is mec2-1
This is part of a sample that, as a whole, favours compounds with a hit. Of some 79,000 tested, about 15% had one in any assay.
value type: growth inhibition (%)
Enter your answer as a number in %; do not include the unit.

Reference set (3 entries):
>  <molecule>
CCCCCCCC/C=C1\CCC(CN(C)C)C1=O (stereo unspecified)

>  <growth inhibition, %>
93.2

$$$$
>  <molecule>
Cn1c(-c2ccc(/C=N/NC(N)=NCCCCCCN=C(N)N/N=C/c3ccc(-c4c[n+]5ccccc5n4C)cc3)cc2)c[n+]2ccccc12

>  <growth inhibition, %>
96.8

$$$$
>  <molecule>
Nc1c(-c2c(Cl)cccc2Cl)[n+]([O-])c2ccccc2[n+]1[O-]

>  <growth inhibition, %>
38.9

$$$$

Task item: Find the measured growth inhibition of Cc1ccc2c(ccc3c[n+]4c5ccccc5ccc4n32)c1 and report it.
Reply: 99.5

Task item: Supply recorded growth inhibition for CCOC(=O)CC(NC(=O)c1[nH]cnc1/N=N/N(C)C)C(=O)OCC (stereo unspecified) here.
Reply: 91.5
